cell viability values for the compounds below.
System: P12-Ichikawa
Experiment: cell viability relative to DMSO control; higher = less cytotoxic
Conditions: RPMI 5 mM glucose + 10% FBS; 48 h; 0.569 µM
Test Readout: cell viability

compound=C[C@@H]1C[C@H]2[C@@H]3CC\C4=C\C(=O)\C=C/[C@]4(C)[C@@]3(Cl)[C@@H](O)C[C@]2(C)[C@@]1(OC(=O)C5=CC=CO5)C(=O)CCl test_readout="cell viability" reported_measurement=53.7%
compound=COC[C@H]1OC(=O)C2=COC3=C2[C@@]1(C)\C4=C(\[C@@H]5CC[C@H](O)[C@@]5(C)C[C@H]4OC(C)=O)C3=O test_readout="cell viability" reported_measurement=128%
compound=COC1=CC2=C(C=C1OC)[C@H]3[C@@H](CO2)OC4=C(C=CC5=C4\C=C/C(C)(C)O5)C3=O test_readout="cell viability" reported_measurement=62.2%
compound=Cc1ccc(-c2ncn(-c3ccc(Nc4nccc(-c5cccc(N6CCOCC6)c5)n4)cc3)n2)cn1 test_readout="cell viability" reported_measurement=3.59%
compound=CNCC(O)C(O)C(O)C(O)CO.O=C(O)c1ccc(-c2cc3cccnc3c(-c3ccc4nonc4c3)n2)cc1 test_readout="cell viability" reported_measurement=122%
compound="CO[C@@H]1C(N(C)C(=O)c2ccccc2)C[C@H]2O[C@]1(C)n1c3ccccc3c3c4c(c5c6ccccc6n2c5c31)C(=O)NC4=O (stereo partly drawn)" test_readout="cell viability" reported_measurement=84.8%
compound=COc1cc(N[S+](=O)([O-])c2ccc(N)cc2)nc(OC)n1 test_readout="cell viability" reported_measurement=110%
compound=Cc1c(C(=O)Nc2cccc(C(F)(F)F)c2)cc(-c2ccccc2)n1CCCN1CCOCC1 test_readout="cell viability" reported_measurement=108%

----------
cell viability values for the molecules below.
Test system: SEM cells
Assay: cell viability relative to DMSO control; higher = less cytotoxic
Conditions: RPMI 5 mM glucose + 10% FBS; 48 h; 5.12 µM
Test Readout: cell viability

molecule=O=C(CCc1ccc(O)cc1)c1c(O)cc(O)cc1O[C@@H]1O[C@H](CO)[C@@H](O)[C@H](O)[C@H]1O test_readout="cell viability" reported_measurement=93.7%
molecule="CC(NCc1ccc2c(c1)[nH]/c(=N\\C(=O)c1ccc(-c3cn[nH]c3)s1)n2CC(C)(C)O)C(C)(C)C (stereo not drawn)" test_readout="cell viability" reported_measurement=4.21%
molecule=C#Cc1cccc(Nc2ncnc3cc(OC)c(OCCCCCCC(=O)NO)cc23)c1 test_readout="cell viability" reported_measurement=4.45%
molecule=CN[S+](=O)([O-])CCc1ccc2[nH]cc(C3CCN(C)CC3)c2c1 test_readout="cell viability" reported_measurement=110%
molecule=CN1C(=O)/C=C(/NCCN(CCO)CCCC2=CC=C(C=C2)[N+]([O-])=O)N(C)C1=O test_readout="cell viability" reported_measurement=95.2%
molecule="CC(C)NCC(O)c1ccc(NS(C)(=O)=O)cc1 (stereo not drawn)" test_readout="cell viability" reported_measurement=92.7%
molecule=CC1(C)CC(O)CC(C)(C)N1[O] test_readout="cell viability" reported_measurement=113%
molecule=CN(C)c1ccc2cc(C(=O)N[C@@H](CCCNC(=N)CCl)C(=O)NCc3ccccc3)ccc2c1 test_readout="cell viability" reported_measurement=101%
molecule="COC1(C[S+]([O-])c2ccccc2)CCN(CCc2c[nH]c3ccc(F)cc23)CC1 (stereo not drawn)" test_readout="cell viability" reported_measurement=117%
molecule=Nc1nc(OCc2ccccc2)c2nc[nH]c2n1 test_readout="cell viability" reported_measurement=93.8%
molecule=NCC(=O)Nc1ccc(-n2nc(C(F)(F)F)cc2-c2ccc3c(ccc4ccccc43)c2)cc1 test_readout="cell viability" reported_measurement=98.3%
molecule=Cc1ncc([N+](=O)[O-])n1CCO test_readout="cell viability" reported_measurement=121%
molecule=Cc1cc(Cl)ccc1OCCCC(=O)NO test_readout="cell viability" reported_measurement=91.7%
molecule=COC[C@H]1OC(=O)C2=COC3=C2[C@@]1(C)\C4=C(\[C@@H]5CC[C@H](O)[C@@]5(C)C[C@H]4OC(C)=O)C3=O test_readout="cell viability" reported_measurement=55.9%
molecule=N[C@@H](CC(=O)N1CCn2c(nnc2C(F)(F)F)C1)Cc1cc(F)c(F)cc1F test_readout="cell viability" reported_measurement=109%
molecule="CC1COC2=C3N1\\C=C(C(O)=O)/C(=O)C3=CC(=C2N4CCN(C)CC4)F (stereo not drawn)" test_readout="cell viability" reported_measurement=117%
molecule=CC(=O)[C@H]1CC[C@H]2[C@@H]3CCC4=CC(=O)CC[C@]4(C)[C@H]3CC[C@]12C test_readout="cell viability" reported_measurement=96.7%
molecule=Cc1c(C(=O)Nc2cccc(C(F)(F)F)c2)cc(-c2ccccc2)n1CCCN1CCOCC1 test_readout="cell viability" reported_measurement=115%
